Hey, just so you know, these numbers are from paper PMC9482650.

target-under-test: Inadl_3, Q8NI35
Sequence (Q8NI35 359-469): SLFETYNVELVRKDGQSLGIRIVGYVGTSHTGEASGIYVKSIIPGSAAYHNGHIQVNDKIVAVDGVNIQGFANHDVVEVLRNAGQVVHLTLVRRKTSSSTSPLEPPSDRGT
assay-name: holdup assay
Set-up: key: below the threshold = too weak to quantify, mostly under pKd 3.1 to 4
experimental-conditions: plain residues with an end cap or a label only (N-terminal biotin on a linker: ahx)
recorded-endpoint: pKd

Sample answers from the record:
# binder, experimental-result
measured = [
    ("RAVEEEESRF [PSCDBP, O60759]", "below the threshold"),
    ("LSDPSVSTVV [GRIN1, Q05586;Q05586-2]", "below the threshold"),
    ("PSASCAVTAA [PDLIM4, P50479;P50479-2]", "below the threshold"),
    ("SDSSGQEYSL [KCTD3, Q9Y597]", "below the threshold"),
]

# evaluate next
Prompt line: Value lookup for pKd; key = NRKREIFSNF [NHERF2, Q15599]
Response line: below the threshold
